- Test Target: V2 Receptor (Rattus norvegicus)
- Construct: rat kidney plasma membrane preparations
- Sequence (Q00788 whole entry): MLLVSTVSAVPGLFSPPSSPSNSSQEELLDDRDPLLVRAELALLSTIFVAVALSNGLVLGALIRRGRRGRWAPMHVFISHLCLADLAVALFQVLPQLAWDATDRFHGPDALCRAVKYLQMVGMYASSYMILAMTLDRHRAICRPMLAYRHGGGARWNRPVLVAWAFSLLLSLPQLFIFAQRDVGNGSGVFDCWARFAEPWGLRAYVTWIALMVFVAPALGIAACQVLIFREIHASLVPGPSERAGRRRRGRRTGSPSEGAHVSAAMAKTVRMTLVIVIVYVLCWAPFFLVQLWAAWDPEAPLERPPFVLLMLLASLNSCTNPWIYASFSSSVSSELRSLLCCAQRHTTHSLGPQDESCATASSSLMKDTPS
- Run Description: V2 Receptor Binding Assay ([3H]-Arg-vasopressin, rat kidney plasma membrane)
- Protocol Conditions: 4° C., pH 8.0
Structures can show the parent of a compound that is named as a salt.
Measurement Name: pIC50
Keep in mind that pIC50 stands for -log10 of concentration in molar terms.

Entry under review: Cc1ccccc1C(=O)Nc1ccc(C(=O)N2CCCC(C#N)c3cc(Cl)ccc32)cc1Cl (stereo not drawn) [Test Compound 38] . Reported pIC50?
6.82

So what does the record say about pIC50 for COc1cc(C(=O)N2CCCC(CC(=O)N3CCN(C)CC3)c3cc(Cl)ccc32)ccc1NC(=O)c1ccccc1C (stereo not drawn) [Test Compound 27] ?
8.15

What value of measured pIC50 is listed for COc1cc(NC(=O)c2ccccc2C)ccc1C(=O)N1CCCC(OCCN2CCCC2)c2cc(Cl)ccc21 (stereo not drawn) [Test Compound 34, hydrochloride] ?
8.22

Field request: pIC50 | item: COc1cc(NC(=O)c2ccccc2C)ccc1C(=O)N1CCCC(CC(=O)N2CCNCC2)c2cc(Cl)ccc21 (stereo not drawn) [Test Compound 52, hydrochloride]
8.22

Request the reported pIC50 associated with COc1cc(NC(=O)c2ccccc2C)ccc1C(=O)N1CCCC(OCCN2CCNCC2)c2cc(Cl)ccc21 (stereo not drawn) [Test Compound 43, dihydrochloride]
8.22

Return reported pIC50; argument: Cc1ccccc1C(=O)Nc1ccc(C(=O)N2CCCC(CC(=O)N3CCN(C)CC3)c3cc(Cl)ccc32)c(C)c1 (stereo not drawn) [Test Compound 41]
7.89

Form field: reported pIC50 of CCOc1cc(NC(=O)c2ccccc2Cl)ccc1C(=O)N1CCCC(CC(N)=O)c2cc(Cl)ccc21 (stereo not drawn) [Test Compound 28]
8.70

What does the record list as pIC50 for COCC(=O)OC1CCCN(C(=O)c2ccc(NC(=O)c3ccccc3C)cc2)c2ccc(Cl)cc21 (stereo not drawn) [Test Compound 24] ?
8.15

Data request, read-out pIC50, for Cc1ccccc1C(=O)Nc1ccc(C(=O)N2CCCC(OCC(=O)NCC(=O)O)c3cc(F)ccc32)c(Cl)c1 (stereo not drawn) [Test Compound 22]
7.74

State the recorded pIC50 for this entry: COc1cc(NC(=O)c2ccccc2Cl)ccc1C(=O)N1CCCC(CC(=O)O)c2cc(Cl)ccc21 (stereo not drawn) [Test Compound 31]
7.72

Request the reported pIC50 associated with CN(C)C1CCCN(C(=O)c2ccc(NC(=O)Cc3ccccc3Cl)cc2)c2ccccc21 (stereo not drawn) [Test Compound 3]
7.21

Which value of pIC50 has been reported for COc1cc(NC(=O)c2ccccc2C)ccc1C(=O)N1CCCC(OC(=O)[C@@H](N)CCCCN)c2cc(Cl)ccc21 (stereo partly drawn) [Test Compound 29, dihydrochloride] in the records?
8.22

Given the molecule Cc1ccccc1C(=O)Nc1ccc(C(=O)N2CCCC(OC(=O)[C@H](C)N)c3ccccc32)c(Cl)c1 (stereo partly drawn) [Test Compound 9, hydrochloride] , what is its reported pIC50?
7.77

Dear colleague, I am looking for the recorded pIC50 of the following molecule: CN(C)C1CCCN(C(=O)c2ccc(NC(=O)Cc3ccccc3[N+](=O)[O-])cc2)c2ccccc21 (stereo not drawn) [Test Compound 7]
6.85

Look up pIC50 for this molecule: CN(C)C1CCCN(C(=O)c2ccc(NC(=O)Cc3ccccc3F)cc2)c2ccccc21 (stereo not drawn) [Test Compound 5]
7.23

Sample CSCC[C@H](N)C(=O)OC1CCCN(C(=O)c2ccc(NC(=O)c3ccccc3C)cc2C)c2ccc(Cl)cc21 (single isomer, unassigned) [Test Compound 14, hydrochloride] — what was its pIC50?
7.96

Consider the molecule Cc1ccccc1C(=O)Nc1ccc(C(=O)N2CCCC(=CCCN(C)C)c3cc(F)ccc32)c(Cl)c1 [Test Compound 33, hydrochloride] and give its measured pIC50.
8.70

What value of measured pIC50 is listed for Cc1ccccc1C(=O)Nc1ccc(C(=O)N2CCCC(OCCCN3CCOCC3)c3cc(F)ccc32)c(C)c1 (stereo not drawn) [Test Compound 35] ?
8.21

Which pIC50 value is on record for CNC(=O)CC1CCCN(C(=O)c2ccc(NC(=O)c3ccccc3C)cc2OC)c2ccc(F)cc21 (stereo not drawn) [Test Compound 42] ?
8.22

# input molecule: COc1cc(NC(=O)c2ccccc2C)ccc1C(=O)N1CCCC(OCCCOS(=O)(=O)c2ccc(C)cc2)c2cc(Cl)ccc21 (stereo not drawn) [Test Compound 37] ; wanted: its pIC50
8.27

Which measured pIC50 value corresponds to Cc1ccccc1C(=O)Nc1ccc(C(=O)N2CCCC(OC(=O)[C@@H]3CCCN3)c3ccccc32)c(Cl)c1 (single isomer, unassigned) [Test Compound 12, hydrochloride] ?
8.05

Entry O=C(Nc1ccc(C(=O)N2CCCC(O)(CO)c3cc(O)ccc32)c(Cl)c1)c1ccccc1Cl (stereo not drawn) [Test Compound 19] has what pIC50?
5.55

Please report the recorded pIC50 for Cc1ccccc1CC(=O)Nc1ccc(C(=O)N2CCCC(O)c3cc(Cl)ccc32)c(C)c1 (stereo not drawn) [Test Compound 16] .
8.40

Fill in: pIC50 of COc1cc(C(=O)N2CCCC(CC(=O)N(C)C)c3cc(Cl)ccc32)ccc1NC(=O)c1ccccc1C (stereo not drawn) [Test Compound 32] is ___
8.40

Which measured pIC50 value corresponds to CN(C)C1CCCN(C(=O)c2ccc(NC(=O)Cc3c(Cl)cccc3Cl)cc2)c2ccccc21 (stereo not drawn) [Test Compound 6] ?
7.62

Field request: pIC50 | item: Cc1ccccc1C(=O)Nc1ccc(C(=O)N2CCCC(OCCCn3ccnc3)c3cc(F)ccc32)c(C)c1 (stereo not drawn) [Test Compound 36]
8.12

Looking for the measured pIC50 of CC(=O)Oc1ccc2c(c1)C(N(C)C)CCCN2C(=O)c1ccc(NC(=O)c2ccccc2Cl)cc1Cl (stereo not drawn) [Test Compound 11] , can you help?
6.96
